Test system: Escherichia coli
procedure-summary: Antimicrobial activity against Escherichia coli assessed as relative sensitizing activity
Format: functional
measure: Activity (%)
Numbers only here, please. The scale is %.

Illustrative cases are given below, each with its answer.
{"compound": "CC(C)C[C@@H]1NC(=O)[C@@H](Cc2ccccc2)NC(=O)[C@H](CCCCN)NC(=O)[C@@H](NC(=O)[C@H](CCCCN)NC(=O)[C@@H](N)[C@@H](C)O)CCNC(=O)[C@H]([C@@H](C)O)NC(=O)[C@H](CCN)NC(=O)[C@H](CCN)NC1=O", "measure": "Activity", "numeric-result": 4}
{"compound": "CC(C)C[C@@H]1NC(=O)[C@@H](Cc2ccccc2)NC(=O)[C@H](CN)NC(=O)[C@@H](NC(=O)[C@H](CN)NC(=O)[C@@H](N)[C@@H](C)O)CNC(=O)[C@H]([C@@H](C)O)NC(=O)[C@H](CN)NC(=O)[C@H](CN)NC1=O", "measure": "Activity", "numeric-result": 11}
{"compound": "CC(C)C[C@@H]1NC(=O)[C@@H](Cc2ccccc2)NC(=O)[C@H](CCN)NC(=O)[C@@H](NC(=O)[C@H](CCN)NC(=O)[C@@H](N)[C@@H](C)O)CCNC(=O)[C@H]([C@@H](C)O)NC(=O)[C@H](CCN)NC(=O)[C@H](CCN)NC1=O (stereo in doubt; 193) [POLYMYXIN B NONAPEPTIDE]", "measure": "Activity", "numeric-result": 100}

I have this compound here, CC(C)C[C@@H]1NC(=O)[C@@H](Cc2ccccc2)NC(=O)[C@H](CCN)NC(=O)[C@H](CCN)NC(=O)[C@H](NC(=O)[C@@H](N)[C@@H](C)O)CCNC(=O)[C@H]([C@@H](C)O)NC(=O)[C@H](CCN)NC(=O)[C@H](CCN)NC1=O , and I need its recorded Activity.
7

Hey, just so you know, these numbers are from ChEMBL document CHEMBL1156251.
